assay: Reducing ability in DPPH assay; conditions: compound 100 μM, 20 min
measurement-type: RA (%) 100μM 20 min
Give bare numbers, in %.

CN1CCN(c2nc(N)c3nccnc3n2)CC1 [Compound 5a]: 15
Cc1nc2nc(N3CCN(C)CC3)nc(N)c2nc1C [Compound 5b]: 0

List the reported RA (%) 100μM 20 min of each compound below.
1. OC1CCCN(c2nc(N3CCCC(O)C3)c3nccnc3n2)C1 (stereo not shown) [Compound 13]
2. CN1CCN(c2nc(NCCc3ccccc3)c3nccnc3n2)CC1 [Compound 18c]
3. CN1CCN(c2nc(N)c3nc(-c4ccccc4)c(-c4ccccc4)nc3n2)CC1 [Compound 5c]
4. CN1CCN(c2nc(NCc3ccco3)c3nccnc3n2)CC1 [Compound 18e]
5. CN1CCN(c2nc(NCc3cccs3)c3nonc3n2)CC1 [Compound 23]
6. CCN1CCN(c2nc(NCc3cccs3)c3nccnc3n2)CC1 [Compound 20a]
7. CCN1CCN(CC)c2c1nc(N1CCN(C)CC1)nc2N1CCN(C)CC1 [Compound 10b]

Data returned:
[6, 11, 10, 10, 16, 4, 98]

Data request: Quick one: RA (%) 100μM 20 min for Cc1nc2nc(N3CCN(C)CC3)nc(NCc3cccs3)c2nc1C [Compound 18g] ?
Data returned: 12

====

For each entry below, report its IC50 value.
Biological target: soybean lipoxygenase (Glycine max)
Sequence (P08170 1-839): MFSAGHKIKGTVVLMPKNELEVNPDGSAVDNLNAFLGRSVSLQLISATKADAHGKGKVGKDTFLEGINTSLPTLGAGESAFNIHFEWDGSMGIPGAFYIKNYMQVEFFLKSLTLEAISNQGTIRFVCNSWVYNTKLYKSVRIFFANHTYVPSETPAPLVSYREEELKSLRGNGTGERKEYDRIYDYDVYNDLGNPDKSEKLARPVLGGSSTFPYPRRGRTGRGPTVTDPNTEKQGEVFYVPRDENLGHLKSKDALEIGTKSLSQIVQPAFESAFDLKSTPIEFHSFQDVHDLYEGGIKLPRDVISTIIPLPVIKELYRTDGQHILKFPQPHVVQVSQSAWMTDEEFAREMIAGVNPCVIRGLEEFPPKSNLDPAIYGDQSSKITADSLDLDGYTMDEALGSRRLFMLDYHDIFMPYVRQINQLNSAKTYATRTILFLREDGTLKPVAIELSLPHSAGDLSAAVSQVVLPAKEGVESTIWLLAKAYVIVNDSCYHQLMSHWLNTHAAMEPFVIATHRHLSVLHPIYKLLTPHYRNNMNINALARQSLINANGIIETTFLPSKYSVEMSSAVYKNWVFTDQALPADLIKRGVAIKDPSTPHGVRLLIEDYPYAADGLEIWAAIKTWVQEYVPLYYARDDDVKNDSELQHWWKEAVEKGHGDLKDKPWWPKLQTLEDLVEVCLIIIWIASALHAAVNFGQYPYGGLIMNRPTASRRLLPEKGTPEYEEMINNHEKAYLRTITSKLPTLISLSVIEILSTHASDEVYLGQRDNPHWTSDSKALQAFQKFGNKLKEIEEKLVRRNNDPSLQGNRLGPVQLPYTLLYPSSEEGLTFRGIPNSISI
Numbers only, in µM.

Could you tell me IC50 for each of these compounds? They are listed below.
1. OC1CCCN(c2nc(N3CCCC(O)C3)c3nccnc3n2)C1 (stereo not drawn)
2. CN1CCN(c2nc(NCc3cccs3)c3nonc3n2)CC1
3. CN1CCN(c2nc(NCc3cccs3)c3nccnc3n2)CC1 [Compound 18f]

Data returned:
1: 60; 2: 74; 3: 55

Would you be so kind as to report IC50 for each listed record?
1. CCN1CCN(CC)c2c1nc(N1CCN(C)CC1)nc2N1CCN(C)CC1 [Compound 10b]
2. CCN1CCN(c2nc(NCc3cccs3)c3nccnc3n2)CC1 [Compound 20a]
3. Cc1nc2nc(N3CCN(C)CC3)nc(NCc3cccs3)c2nc1C [Compound 18g]
4. CN1CCCN(c2nc(NCc3cccs3)c3nccnc3n2)CC1 [Compound 20b]
5. CN1CCN(c2nc(NCc3cccnc3)c3nccnc3n2)CC1 [Compound 18d]
6. CCN1CCNc2nc(N3CCN(C)CC3)nc(N3CCN(C)CC3)c21 [Compound 10a]

Data returned:
55
43
88.5
62.5
0.1
5

From: paper PMC5462101
